Data provenance: ChEMBL document CHEMBL5042500

assay: Tmax in Lewis rat plasma at 30 mg/kg, po measured after 8 hrs; format: ADME, organism-based
measurement type: Tmax (h)

[[record]]
compound = "N#Cc1ccc(Cl)cc1S(=O)(=O)Nc1ccc(-c2ncc3c(N)n[nH]c3n2)cc1"
output_unit = "h"
result_value = 4

[[record]]
compound = "Cc1n[nH]c2nc(-c3ccc(NS(=O)(=O)c4cc(Cl)ccc4F)cc3)nc(OC3CCN(C(C)C)CC3)c12"
output_unit = "h"
result_value = 8


----------
assay: Solubility of the compound in FeSSIF at pH 5.0; format: physicochemical
measurement type: solubility (µg/mL)

[[record]]
compound = "Cc1n[nH]c2nc(-c3ccc(NS(=O)(=O)c4cc(Cl)ccc4F)cc3)nc(OC3CCN(C4CC4)CC3)c12"
measurement_type = "solubility"
result_value = 17

[[record]]
compound = "Cc1n[nH]c2nc(-c3ccc(NS(=O)(=O)c4cc(Cl)ccc4F)cc3)nc(OC3CCN(C(C)C)CC3)c12"
measurement_type = "solubility"
result_value = 281

